Quick reference for AC50 among some compounds
target: Trypsin (Sus scrofa); assay: porcine trypsin inhibitors, dose response, selectivity assay for Rce1 protease inhibitor project, biochemical, quenched peptide fluorescence, cherry-pick (AID 488789)
Sequence (P00761 whole entry): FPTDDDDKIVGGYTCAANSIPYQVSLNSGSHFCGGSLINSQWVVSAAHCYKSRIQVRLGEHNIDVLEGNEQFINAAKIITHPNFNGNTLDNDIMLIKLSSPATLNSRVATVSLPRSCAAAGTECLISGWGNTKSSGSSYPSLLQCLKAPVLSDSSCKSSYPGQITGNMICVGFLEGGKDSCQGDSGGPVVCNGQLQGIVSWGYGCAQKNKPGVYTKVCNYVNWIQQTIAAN
Active and inactive are the calls of the source.

COc1cc(-c2c(C#N)c(N)nc3c2c(C)nn3-c2ccc(C)c(C)c2)cc(OC)c1OC :: 16.1 µM (active)
CCn1c2ccccc2c2cc(/C=N/NC(=O)c3ccc(O)cc3)ccc21 :: 4.51 µM (active)
O=C(c1ccc(Cn2cnnn2)cc1)N1CCCC(Nc2ccc(F)cc2)C1 (centres undefined) :: 5.79 µM (active)

Now consider the entry below.
Task: Looking for the measured AC50 of `COc1ccc(CSc2ccc(-c3nc4ccccn4c3NCc3ccccc3)cc2OC)cc1` , can you help?
Result: 4.45 µM (active)

* * *

tested on: Vero; test: cells; assay type: functional; conditions: Chlorocebus sabaeus
Activity calls are given as the source filed them.
// CC50 lookup, one value per entry

The examples below pair each entry with its known result.
COc1ccc(C2c3c(ncn(CCCN4CCOCC4)c3=N)Oc3ccc4ccccc4c32)cc1OC (centres undefined) :: > 25 µM (active)
O=C1NC(=O)N(CCc2ccccc2)C(=O)/C1=C(O)/C=C/c1ccccc1 :: 13.3 µM (active)
COc1ccc(/C=C/C(=O)Nc2ccc(C34CC5CC(CC(O)(C5)C3)C4)cc2)cc1OC :: 20.9 µM (active)

Okay, now this compound:
Task: Reported CC50, compound `CCSc1nnc(NC(=O)NC(CC)(C(F)(F)F)C(F)(F)F)s1` : ____
Result: 16.5 µM (active)

* * *

target: Caspase-3 (Homo sapiens); assay type: functional;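 further: Dose-response selectivity test against caspase-3 for candidate inhibitors of sentrin-specific proteases (SENPs)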
Calls of active or inactive are those of the source.
Entries and their IC50 values follow.

C=COC(=O)CSc1nc(-c2cccs2)ccc1C#N :: 13.3 µM (active)
O=c1c2cc(-c3ccccc3)sc2nc2n1CCC2 :: 5.94 µM (active)
CS(=O)(=O)Nc1ccc(C(=O)Nc2ccc3ccccc3c2)cc1 :: 6.3 µM (active)
O=C(Nc1cccc(Cl)c1)N1CCc2ccccc2C1 :: 18.9 µM (active)

Okay, next one:
Task: What measured IC50 is associated with `Cc1ccc(C(=O)c2sc3nsc(C)c3c2N)cc1` on Caspase-3 (Homo sapiens)?
Result: 28.9 µM (active)

* * *

molecular target: Probable nicotinate-nucleotide adenylyltransferase (Staphylococcus aureus (strain N315), UniProt P65502); type: functional, Staphylococcus aureus subsp. aureus N315; details: read-out: IC50_Mean;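 further: confirmatory dose-response retesting of NadD inhibitor hits first found in an ultra-high-throughput screen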
Sequence (P65502 whole entry): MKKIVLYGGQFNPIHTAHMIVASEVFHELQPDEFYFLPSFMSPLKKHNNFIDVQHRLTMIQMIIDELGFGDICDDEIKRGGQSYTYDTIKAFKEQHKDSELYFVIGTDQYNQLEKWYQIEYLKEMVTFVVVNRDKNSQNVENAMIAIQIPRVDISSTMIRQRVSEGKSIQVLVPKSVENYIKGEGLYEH
Calls of active or inactive are those of the source.
Returns: one label drawn from active, inactive

C#CCn1/c(=N/C(=O)c2cc(-c3cccs3)nc3ccccc23)sc2cc(S(N)(=O)=O)ccc21 :: active
COc1ccccc1NC(=O)c1c(Nc2ccccc2C)sc(C(=O)Nc2cccc(Cl)c2)c1N :: inactive
NC(CSC(c1ccccc1)(c1ccccc1)c1ccc(-c2ccccc2)cc1)C(=O)O (configuration not stated) :: active
Cc1ccccc1COc1ccc(C(=O)C2=C(O)C(=O)N(CCCn3ccnc3)C2c2ccco2)cc1 (configuration not stated) :: inactive
Cc1cccc(-n2nc3c(c2NC(=O)c2ccc(Br)o2)CSC3)c1 :: active
O=S(=O)(NC(=Nc1ccc(Cl)c(S(=O)(=O)Nc2ccccc2Cl)c1)c1ccc(F)cc1)c1ccccc1 :: inactive

Now consider a different molecule.
Task: Test call for this molecule, please: `CCN1/C(=C/C=C/C=C/C=C/c2sc3ccccc3[n+]2CC)Sc2ccccc21`
Result: active

* * *

biological target: DNA dC->dU-editing enzyme APOBEC-3A (Homo sapiens); test: Dose Response confirmation of small molecule APOBEC3A DNA Deaminase Inhibitors via a fluorescence-based single-stranded DNA deaminase assay. [Related pubchem assays (depositor defined):AID493011, AID493024]; format: functional
Sequence (P31941 whole entry): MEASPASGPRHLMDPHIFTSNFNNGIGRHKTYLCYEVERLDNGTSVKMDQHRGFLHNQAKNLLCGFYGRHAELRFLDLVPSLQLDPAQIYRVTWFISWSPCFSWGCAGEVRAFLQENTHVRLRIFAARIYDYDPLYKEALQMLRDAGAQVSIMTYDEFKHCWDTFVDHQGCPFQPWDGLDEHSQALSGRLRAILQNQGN
Activity calls are given as the source filed them.
Reported values of IC50 for individual entries

Example compounds with recorded IC50:
COCCNC1=N[C@@H](c2ccc(Br)cc2)C(C(=O)OC)=C(C)N1Cc1ccccc1 :: 12 µM (active)
CCOC(=O)C1=C(COC(=O)/C=C/c2ccco2)NC(=O)NC1C (configuration not stated) :: 15.9 µM (active)
CCc1n(CC(O)COCc2ccccc2)c2ccccc2[n+]1C (configuration not stated) :: 2.36 µM (active)
C[n+]1ccc(C(=O)NCc2ccccc2)cc1 [ENISAMIUM IODIDE] :: 2.98 µM (active)

Task: GET /values?readout=IC50&item= CCCc1n(CC(O)COCc2ccccc2)c2ccccc2[n+]1C (configuration not stated)
Result: 3.16 µM (active)

Task: // IC50 lookup, key: `Cc1cccc(C(=O)N[C@H](C(=O)OCc2cc(=O)n3c(n2)sc2ccccc23)C(C)C)c1`
Result: 14.7 µM (active)

Task: Given `NS(=O)(=O)c1cc(C(=O)OCC(=O)Nc2ccc3[nH]c(O)nc3c2)ccc1Cl` , state its recorded IC50.
Result: 10.4 µM (active)

* * *

biological target: FAD-linked sulfhydryl oxidase ALR (Homo sapiens); experiment: inhibitors of human ALR sulfhydryl oxidase, dose response, biochemical, H2O2 detection, luminescence, cherry-pick (AID 493248)
Sequence (P55789 whole entry): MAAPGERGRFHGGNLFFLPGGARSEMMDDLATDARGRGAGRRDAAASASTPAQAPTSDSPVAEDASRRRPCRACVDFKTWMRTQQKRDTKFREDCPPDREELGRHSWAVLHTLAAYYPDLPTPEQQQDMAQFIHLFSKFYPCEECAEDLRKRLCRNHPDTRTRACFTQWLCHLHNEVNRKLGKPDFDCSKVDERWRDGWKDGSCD
Active and inactive are the calls of the source.
metric name: AC50

Cc1c(Cl)c(-c2nnc(S)n2-c2ccccc2)nn1C :: < 14 nM (active)
Oc1ccc(N2CCN(c3nnnn3-c3ccccc3)CC2)cc1 :: 1900 nM (active)
NC(=O)c1c(NC(=O)c2ccc(N3C(=O)CCC3=O)cc2)sc2c1CCCC2 :: 165 nM (active)

Task: Given `CCN(CC)c1ccc(/C=N/Nc2nc(C)cc(O)n2)cc1` , state its recorded AC50.
Result: 456 nM (active)

Task: Fill in the blank: the reported AC50 of COc1ccc(N2C(=O)CSC2c2ccccc2)cc1 (centres undefined) is ____.
Result: 1900 nM (active)

* * *

experiment: cytotoxicity toward NIH3T3 fibroblasts, dose response, counter-screen, cell-based, ATP luminescence, mouse fibroblasts (AID 2010); assay type: functional;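 further: cells exposed to compound for about 90 hours before reading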
Activity calls are given as the source filed them.
EC50 values, listed per item

Example entries and their recorded answers appear below.
Fc1ccccc1/C=N/Nc1nc(-c2ccccn2)nc2ccccc12 :: 54.9 µM (active)
O=C(CSc1nnnn1-c1cccc2ccccc12)Nc1ccc(N2CCOCC2)c(Cl)c1 :: > 60 µM (inconclusive)
CCOc1ccc2nc(NC(=O)CSc3nnnn3C3CCCCC3)sc2c1 :: > 30 µM (not active)
COc1ccc(Cl)cc1N=C(S)N(Cc1cccnc1)Cc1ccco1 :: > 60 µM (not active)
Clc1c(OCCCn2ccnc2)ccc2ccccc12 :: > 60 µM (not active)

Proceed to the following item.
Task: What value of EC50 has been reported for the following compound? `Clc1ccc(-c2csc(Nc3cccnc3)n2)cc1`
Result: > 60 µM (not active)

* * *

Target: Heat shock factor protein 1 (Mus musculus)
Sequence (P38532 whole entry): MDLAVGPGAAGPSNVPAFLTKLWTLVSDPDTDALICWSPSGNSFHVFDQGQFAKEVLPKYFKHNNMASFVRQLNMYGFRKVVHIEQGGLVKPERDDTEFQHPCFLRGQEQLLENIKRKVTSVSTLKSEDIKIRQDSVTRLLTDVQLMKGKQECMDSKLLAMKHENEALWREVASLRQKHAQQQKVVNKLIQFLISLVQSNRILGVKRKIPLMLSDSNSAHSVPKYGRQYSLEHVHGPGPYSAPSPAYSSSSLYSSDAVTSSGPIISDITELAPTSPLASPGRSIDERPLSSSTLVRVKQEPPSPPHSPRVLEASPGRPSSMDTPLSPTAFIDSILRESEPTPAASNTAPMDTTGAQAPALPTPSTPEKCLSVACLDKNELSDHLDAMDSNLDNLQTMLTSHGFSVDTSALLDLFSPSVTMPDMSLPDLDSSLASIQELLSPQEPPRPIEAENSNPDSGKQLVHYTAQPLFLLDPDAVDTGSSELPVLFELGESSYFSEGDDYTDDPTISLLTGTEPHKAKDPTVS
Test: HSF1 potentiators in luciferase reporter cells, confirmation, cell-based, NIH3T3, luminescence, dose retest (AID 435004);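 further: stress induced by proteasome inhibitor MG132 added 30 min after compound; luciferase reporter driven by HSF1 response element in NIH3T3 cells; actives raise luminescence as potentiators of the MG132 stress response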
Format: functional
Activity calls are given as the source filed them.
metric name: EC50

COc1ccc(N2CCN(c3ncnc4c3cnn4-c3ccc(C)cc3C)CC2)cc1 :: > 260 µM (inactive)
Cc1ccc(N(NC(=O)C(O)(c2ccccc2)c2ccccc2)C(=O)CCl)cc1 :: > 260 µM (inconclusive)
CCN(CC)C(=O)CSc1ncnc2sc(C)c(C)c12 :: > 260 µM (inactive)
CS(=O)(=O)c1ccc(C(=O)OCc2nnc(-c3ccccc3)o2)cc1[N+](=O)[O-] :: 8.57 µM (inconclusive)
O=C(NNc1c(F)c(F)cc(F)c1F)c1ccc(Cl)nc1 :: > 260 µM (inactive)

Task: Entry under review: `Cc1ccc(F)cc1NC(=O)N1CCCN(c2ccc(C(F)(F)F)cn2)CC1` . Reported EC50?
Result: > 260 µM (inactive)

Task: // query EC50 value for entry `O=C(NC(=S)Nc1ccccc1C(F)(F)F)c1ccccc1F`
Result: 143 µM (active)

Task: Reported EC50 for `COc1ccc(-n2c(SCc3ccc([N+](=O)[O-])cc3)nnc2-c2ccc(C)cc2)cc1` : what is it?
Result: > 260 µM (inactive)

Task: Suppose we examine the molecule O=C(CSc1ncnc2c1nnn2-c1ccc(F)cc1)NCC1CCCO1 (centres undefined) ; what EC50 value has been reported?
Result: 36.2 µM (active)
